This section presents compounds with their documented cytotoxicity at 70.5 h values.
- Assay Details: Human HepG2 cell viability assay in 384 well format
- Assay type: toxicity, cell-based
- Design: dose 125 nL, time 70.5 hour; concentration not given beside the values
- Measurement Setup: HepG2 cells, read-out: Inhibition
Give the value in % but do not write % after it.

INSERT INTO measurements (compound, uom, value) VALUES
  ('CC(CNC(=O)c1cc(Cl)ccc1F)N1CCCC1 (stereo unspecified)', '%', -13.5),
  ('O=C([C@@H]1CSCN1)N1CC2(CCNCC2)c2cc(Cl)ccc21', '%', -3.25),
  ('CCOCc1ccc(CNC(=O)N2CCC(C(N)=O)C2)cc1 (stereo unspecified)', '%', -2.39);

Which cytotoxicity at 70.5 h is reported for this compound? "Cc1oc(C(=O)O)cc1S(=O)(=O)Nc1ccc(Br)cc1Cl"
-16.9

Entry Cc1ccc(CNC(c2cccc(F)c2)c2nccn2C)o1 (stereo unspecified) please
-3

Entry "Cc1noc(CNC(=O)CN(C)c2nc3c(C)ccc(C)c3s2)n1" please
12.2

Entry "CN(C)CC(=O)N1C[C@H]2CCC[C@@]2(COc2ccccn2)C1" please
-16.4

Entry "O=C(NCCCNc1ccc(C(F)(F)F)cn1)c1ccccc1" please
-8.08

Entry "CCSCCC(=O)Nc1ncn(Cc2cccnc2)n1" please
-9.89

Entry "O=C(O)[C@H]1C[C@H](C(=O)NCc2ccncc2)CN(CCC(F)(F)F)C1" please
-6.65

Entry "CCN(CC)S(=O)(=O)c1ccc(NC(=O)C(C)(C)C)cc1" please
-4.91

----------
- Assay Details: Human HepG2 cell viability assay in 384 well format
- Assay type: toxicity, cell-based
- Design: dose 125 nL, time 70.5 hour; concentration not given beside the values
- Measurement Setup: HepG2 cells, read-out: Inhibition
This section presents molecules with their documented cytotoxicity at 70.5 h values.
Give the value in % but do not write % after it.

Recorded cytotoxicity at 70.5 h, per entry:
INSERT INTO results (molecule, parameter_measured, value) VALUES
  ('CC(O)CN1CCc2onc(-c3ccccc3F)c2C1 (configuration not stated)', 'cytotoxicity at 70.5 h', -22.3),
  ('CC(Cn1cccn1)NC(=O)CCc1nc(C(C)(C)C)no1 (configuration not stated)', 'cytotoxicity at 70.5 h', -2.44),
  ('Cc1cn2c(n1)CCC(NC(=O)c1nc(C)ncc1Cl)C2 (configuration not stated)', 'cytotoxicity at 70.5 h', -8.31),
  ('Cc1n[nH]c(C)c1S(=O)(=O)N1CCC(Oc2cnccn2)CC1', 'cytotoxicity at 70.5 h', -2.37);

Which cytotoxicity at 70.5 h is reported for this molecule? CCn1cncc1CN(Cc1ccc(OC)cc1OC)CC1CCCO1 (configuration not stated)
-3.49

Entry CC(C(=O)N(Cc1ccc(C#N)cc1)CC(F)(F)F)S(C)(=O)=O (configuration not stated) please
-10.1

Entry "Cc1ccc(CC(=O)NCCCNS(C)(=O)=O)cc1" please
1.07

Entry "CN(c1ccc(CNc2c(Cl)cccc2C#N)cc1)S(C)(=O)=O" please
-1.4

Entry O=C1C(NCc2nnc3n2CCCC3)CCN1c1ccccc1Cl (configuration not stated) please
9.28

Entry CC(=O)N1CCN(C(=O)C(C)n2cncn2)CC1 (configuration not stated) please
5.31

Entry CCOC(=O)NC1CCCN(c2cncc(Br)c2)C1 (configuration not stated) please
0.767

Entry "Cc1ccccc1N1CCCN(C(=O)CCc2cccnc2)CC1" please
0.239

Taken from ChEMBL document CHEMBL3507680.
